The entries below are paired with their reported protein stability index.
B1: PPP2R2B (parent)
chain: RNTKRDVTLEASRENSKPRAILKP

Variants of: B1
protocol.summary: protein stability index of a GFP-peptide fusion (GPS, HEK-293T) (PSI 1-6); higher = more stable;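 note: lentivirally expressed fusions sorted by FACS into six bins by GFP to DsRed ratio, PSI derived from sequencing read proportions per bin multiplied by bin number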
run.parameters: c terminus: a fixed tail appended
// return a plain number; no unit text

// below: answered variants
| sequence.variant | measured |
| --- | --- |
| E10R | 4.01 |
| N15T | 4.49 |
| P18M | 4.58 |
| T8L | 4.62 |
| R1M | 4.44 |
| L9H | 4.46 |

Please give the documented protein stability index of S16Y
4.17

Please give the documented protein stability index of A11F
3.59

Please give the documented protein stability index of R19F
4.12

Please give the documented protein stability index of L9P
4.4

Please give the documented protein stability index of A11K
4.23

Please give the documented protein stability index of T8H
4.35

Please give the documented protein stability index of R1C
4.88

Please give the documented protein stability index of L22G
4.69

Sourced from the supplement of paper PMC10567573
